# Test system: Atropa belladonna
# Experimental details: Activity at Atropa belladonna recombinant hycosamine 6beta-hydroxylase expressed in Escherichia coli assessed as hydroxylated product formation at 0.2 mM after 1 hr by ESI-MS analysis
Activity calls are given as the source filed them. No cut-off for these calls is given here.
API: response.call in YES = active, NO = inactive

Compound: CN1CCC(OC(=O)Cc2ccccc2)CC1
Discrete label: NO

[ask] How was CN1C2CC[C@@H]1C[C@H](OC(=O)c1ccccc1)C2 (single isomer, unassigned) classified in this test?
[reply] YES

[ask] How was CN1C2CC[C@@H]1C[C@H](OC(=O)CCc1ccccc1)C2 (single isomer, unassigned) classified in this test?
[reply] NO

[ask] How was C[N+]1(C)C2C[C@H](OC(=O)[C@H](CO)c3ccccc3)C[C@@H]1[C@H]1OC21 (single isomer, unassigned) classified in this test?
[reply] NO

====

# System: Atropa belladonna
# Experimental details: Activity at Atropa belladonna recombinant hycosamine 6beta-hydroxylase expressed in Escherichia coli assessed as hydroxylated product formation at 0.2 mM after 1 hr by ESI-MS analysis
Active and inactive are the calls of the source. The calls are words filed in the database; no cut-off is given here.
API: response.call in Yes = active, No = inactive

Compound: CN(C)c1ccc(CC(=O)O[C@H]2C[C@H]3CC[C@@H](C2)N3C)cc1
Discrete label: Yes
//
Compound: O=C(Cc1ccccc1)O[C@@H]1CC2CC[C@H](C1)O2 (single isomer, unassigned)
Discrete label: No

Lab note: next compound to report on.
[ask] How was CN1[C@@H]2C=C[C@H]1C[C@@H](OC(=O)[C@H](CO)c1ccccc1)C2 classified in this test?
[reply] Yes
